# tested system: Jak2 (UniProt O60674)
# Sequence (O60674 whole entry, looked up): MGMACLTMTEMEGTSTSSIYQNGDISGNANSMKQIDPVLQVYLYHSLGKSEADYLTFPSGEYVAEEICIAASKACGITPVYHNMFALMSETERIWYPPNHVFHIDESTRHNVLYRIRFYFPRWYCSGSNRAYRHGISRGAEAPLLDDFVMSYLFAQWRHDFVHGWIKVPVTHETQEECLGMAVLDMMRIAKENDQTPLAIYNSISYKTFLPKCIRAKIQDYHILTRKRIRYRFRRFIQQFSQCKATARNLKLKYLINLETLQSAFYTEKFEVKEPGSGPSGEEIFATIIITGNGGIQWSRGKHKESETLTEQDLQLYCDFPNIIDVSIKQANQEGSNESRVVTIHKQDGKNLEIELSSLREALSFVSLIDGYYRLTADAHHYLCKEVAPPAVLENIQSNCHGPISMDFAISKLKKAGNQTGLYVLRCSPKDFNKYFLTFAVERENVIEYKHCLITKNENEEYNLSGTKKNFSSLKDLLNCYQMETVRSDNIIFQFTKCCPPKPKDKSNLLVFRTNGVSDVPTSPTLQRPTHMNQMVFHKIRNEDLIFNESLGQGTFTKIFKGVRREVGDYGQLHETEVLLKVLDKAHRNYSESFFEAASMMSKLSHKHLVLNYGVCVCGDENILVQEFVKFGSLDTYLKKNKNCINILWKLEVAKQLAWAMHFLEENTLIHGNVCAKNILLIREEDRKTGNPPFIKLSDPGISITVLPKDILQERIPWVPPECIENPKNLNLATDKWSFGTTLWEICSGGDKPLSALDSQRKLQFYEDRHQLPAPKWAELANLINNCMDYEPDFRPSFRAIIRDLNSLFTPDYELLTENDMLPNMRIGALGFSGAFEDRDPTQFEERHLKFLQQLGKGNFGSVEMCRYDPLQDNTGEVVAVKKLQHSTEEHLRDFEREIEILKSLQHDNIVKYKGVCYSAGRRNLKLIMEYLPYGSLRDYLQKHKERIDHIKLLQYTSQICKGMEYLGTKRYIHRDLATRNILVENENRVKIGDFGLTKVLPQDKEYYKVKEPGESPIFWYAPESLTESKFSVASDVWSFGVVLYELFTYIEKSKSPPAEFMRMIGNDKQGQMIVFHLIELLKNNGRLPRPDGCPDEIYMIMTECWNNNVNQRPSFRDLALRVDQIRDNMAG
# method description: phosphorylation enrichment, bacterial display (enrichment ratio); higher = better substrate or ligand; peptides without Tyr show the background
Each entry below lists one item and its recorded phosphorylation enrichment value.

>>> df
               item_sequence          tested_system  reported_measurement
0  AARVSYRLASG [DCHS1_Y1582]  Jak2 (UniProt O60674)                 0.428

What phosphorylation enrichment value was documented for this sequence, RHPREYQDLLN [DES_Y388_L385P] ?
0.785

What would you report for RGVTHYILQTF [SLC39A4_Y359] ?
1.24

What would you report for LGLDECLDKLK [FMNL2_Y352_Y352C] ?
2.01

What would you report for FVSIVCNDSGE [TSC2_Y1650_Y1650C] ?
1.18

What would you report for TYGQVYKGPHV [TNIK_Y40_R43P] ?
0.826

What would you report for VDLIVYLWTNP [TK2_Y181_R183W] ?
1.21

What would you report for PFTRNYFVQAV [CYBA_Y87_R90Q_YF] ?
0.6

What would you report for ITLKGYNLSNS [GNPTAB_Y728_K732N] ?
0.547

What would you report for ETLLYYGCRRS [POR_Y564] ?
1.67

What would you report for KAALSYVSEIG [BPIFB2_Y36] ?
0.668

What would you report for KASGKYFAMKI [AKT3_Y173_YF] ?
0.508

What would you report for VGTKRYMASEV [ACVRL1_Y375_P378S] ?
0.533

* * *

# tested system: MERTK (UniProt Q12866)
# Sequence (Q12866 whole entry, looked up): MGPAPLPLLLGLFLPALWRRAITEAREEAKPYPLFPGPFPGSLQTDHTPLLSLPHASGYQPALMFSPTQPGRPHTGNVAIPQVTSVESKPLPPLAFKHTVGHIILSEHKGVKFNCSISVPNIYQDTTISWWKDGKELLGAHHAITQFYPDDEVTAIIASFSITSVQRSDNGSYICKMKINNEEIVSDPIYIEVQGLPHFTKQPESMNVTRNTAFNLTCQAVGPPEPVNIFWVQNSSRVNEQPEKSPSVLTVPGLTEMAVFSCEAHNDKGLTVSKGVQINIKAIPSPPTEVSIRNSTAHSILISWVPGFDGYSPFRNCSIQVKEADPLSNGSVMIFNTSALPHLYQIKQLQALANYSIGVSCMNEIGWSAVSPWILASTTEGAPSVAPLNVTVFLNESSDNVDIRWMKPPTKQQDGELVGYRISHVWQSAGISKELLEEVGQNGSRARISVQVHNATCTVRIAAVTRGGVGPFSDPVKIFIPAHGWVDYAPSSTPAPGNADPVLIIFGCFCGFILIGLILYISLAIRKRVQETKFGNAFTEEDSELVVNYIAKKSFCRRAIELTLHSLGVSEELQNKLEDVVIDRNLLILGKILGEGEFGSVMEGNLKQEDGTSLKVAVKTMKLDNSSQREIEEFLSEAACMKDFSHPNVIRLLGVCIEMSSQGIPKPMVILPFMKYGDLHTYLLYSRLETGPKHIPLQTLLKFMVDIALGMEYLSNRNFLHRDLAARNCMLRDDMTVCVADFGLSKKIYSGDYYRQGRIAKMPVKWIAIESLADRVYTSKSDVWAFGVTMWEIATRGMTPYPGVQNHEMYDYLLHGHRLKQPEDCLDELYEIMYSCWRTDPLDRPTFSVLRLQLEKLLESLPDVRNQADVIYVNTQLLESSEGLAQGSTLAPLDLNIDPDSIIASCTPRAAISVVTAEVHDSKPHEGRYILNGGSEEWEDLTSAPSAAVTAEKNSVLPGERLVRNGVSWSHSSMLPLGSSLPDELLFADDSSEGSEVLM
# method description: phosphorylation enrichment, bacterial display (enrichment ratio); higher = better substrate or ligand; peptides without Tyr show the background
Each entry below lists one item and its recorded phosphorylation enrichment value.

>>> print(df.to_string())
                   item_sequence           tested_system  reported_measurement
0       QVMDGYPMPIG [MMP14_Y353]  MERTK (UniProt Q12866)                 0.906
1    TYGVLYKARNK [CDK2_Y19_V18L]  MERTK (UniProt Q12866)                 0.689
2       ARGMEYLASKK [FGFR1_Y613]  MERTK (UniProt Q12866)                 0.354
3      PTDSVYVMPTV [MYO7A_Y1668]  MERTK (UniProt Q12866)                  8.35
4     VISNAYVDLAP [HSD17B4_Y602]  MERTK (UniProt Q12866)                 0.589
5  FFRCHYPLTTL [TNS4_Y644_R642C]  MERTK (UniProt Q12866)                   0.4

What phosphorylation enrichment value was documented for this sequence, PLYGEYFTLQI [TP53_Y327_D324Y] ?
9.96

What would you report for MKGEFYRFLAE [YWHAG_Y131_D129E_YF] ?
0.372

What would you report for QSPQLYKQMCI [DARS1_Y253] ?
0.603

What would you report for LFHENYNAGTF [CFI_Y421_I416L_YF] ?
0.654

What would you report for EGDGVYTLNNE [HP_Y125] ?
0.509

What would you report for YVKEPYIQSRF [HIPK4_Y175] ?
0.53

What would you report for EYQKKYSDADI [CKAP5_Y1860_K1857Q] ?
0.432

What would you report for MKDLTYSSLCF [ALOX5_Y446_A447S] ?
4.91

What would you report for FADIAYNYRDG [PAH_Y166_H170D] ?
0.363

What would you report for RRYVYYYSYLL [PTEN_Y177] ?
3.68

What would you report for SRGHQYQELPR [KCNH2_Y1009_R1007H] ?
0.576

What would you report for ITLKGYNLSNS [GNPTAB_Y728_K732N] ?
0.381

What would you report for KLRMESLSLMH [NCKIPSD_Y660_Y660S] ?
0.436

What would you report for PKKKQYTSIHH [APP_Y728_L723P] ?
0.656

What would you report for RLDGEYFTLQI [TP53_Y327_P322R] ?
0.538

What would you report for GFILMYDITNK [RAB3C_Y110_E115K] ?
0.835

What would you report for FQNSLYAPDFS [FAM92A_Y226_R222Q_YF] ?
7.8

* * *

# System: Fer (mouse)
# method description: phosphorylation enrichment, bacterial display (enrichment ratio); higher = better substrate or ligand; peptides without Tyr show the background
Each entry below lists one item and its recorded phosphorylation enrichment value.
Answer with a number only.

Check out these entries, answers already filled in.
>>> print(df.to_string())
                 item_sequence  reported_measurement
0  RRVLVYGDRGA [QDPR_Y16_G18D]                 0.424
1     RSRRSYSCQVM [IGLL1_Y192]                 0.639

GET /values?readout=phosphorylation enrichment&system=Fer (mouse)&item= RAILLYEYVGK [NATD1_Y45_V42I]
26.3

What would you report for EHIEFYELDKK [PMM2_Y145_R141H] ?
0.456

What would you report for RLDGEYFTLQI [TP53_Y327_P322R] ?
0.72

What would you report for NLAAQYTTVGR [SGSH_Y240_D235N] ?
0.36

What would you report for KVNKIYHPDFI [LIG3_Y767_Y768H] ?
0.395

* * *

# tested system: SHP2-C SH2
# method description: SH2 binding enrichment of the phosphorylated peptide, bacterial display (enrichment ratio); higher = better substrate or ligand; peptides without Tyr show the background
property: SH2 binding enrichment
Answer with a number only.

Check out these entries, answers already filled in.
>>> print(df.to_string())
                         item_sequence  reported_measurement
0  LKEIRYPPFTD [ALDH3B2_Y362_H361R_YF]                  0.68
1              RVQQIYSDSDL [MIB1_Y376]                 0.962

GET /values?readout=SH2 binding enrichment&system=SHP2-C SH2&item= LEQRPYRRGSE [KCNJ12_Y427_E430G];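 also: peptide library displayed on the E. coli surface as eCPX fusions, selected cells deep-sequenced, score is each peptide's frequency after selection divided by its frequency in the input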
0.733

What would you report for ADGLEYSRTGL [MMUT_Y287] ?
0.606

What would you report for RLNCIYYKDQT [RS1_Y165_W163C] ?
0.456

What would you report for KVKPIYFHTQG [AR_Y916] ?
1.82

What would you report for FADIAYNYRDG [PAH_Y166_H170D] ?
0.575

What would you report for ECKLLYSRKEG [PTPN11_Y263] ?
1.09

What would you report for SLTGAYASGIP [POM121C_Y378_T379A] ?
0.602

* * *

Each entry below lists one item and its recorded phosphorylation enrichment value.
# tested system: Jak2 (UniProt O60674)
# method description: phosphorylation enrichment, bacterial display (enrichment ratio); higher = better substrate or ligand; peptides without Tyr show the background
Answer with a number only.

Check out these entries, answers already filled in.
>>> print(df.to_string())
                    item_sequence          tested_system                    property  reported_measurement
0  HNLDYYKETTN [FGFR3_Y648_K650E]  Jak2 (UniProt O60674)  phosphorylation enrichment                  1.01
1   DPLLTHRFPPK [LMNA_Y481_Y481H]  Jak2 (UniProt O60674)  phosphorylation enrichment                 0.571
2   TVVVPYEPPEV [TP53_Y220_S215T]  Jak2 (UniProt O60674)  phosphorylation enrichment                  1.35
3      TPTFPYLLPKS [PLD2_Y580_YF]  Jak2 (UniProt O60674)  phosphorylation enrichment                 0.519
4  PPNSPYMGSSP [KCNT1_Y740_I741M]  Jak2 (UniProt O60674)  phosphorylation enrichment                 0.825

What phosphorylation enrichment value was documented for this sequence, EEGNPYYSSTR [MCCC2_Y520_A524T] ?
0.693

What would you report for AKFPSYEKNKK [FOXL2_Y91_F90S] ?
1.07

What would you report for LNPFIYSLRNR [OR1A1_Y288] ?
1.43

What would you report for DRPSEYAARQL [ANXA13_Y90] ?
0.498

What would you report for PTKNDYWAMLA [WWOX_Y287] ?
1.12

What would you report for SLTRLYVGENA [NLRP3_Y861] ?
0.494

What would you report for EEGNPYYSSAR [MCCC2_Y520] ?
0.848

What would you report for PLYGEYFTLQI [TP53_Y327_D324Y] ?
15.3

Origin of the recorded values: the supplement of paper PMC10065799
